Data origin, for the record: patent US20240158348A1

- Tested on: oat, wild (wild oat, Avena fatua)
- METHOD_SUMMARY: Test C preemergence, wild oat
- Assay type: in vivo
- MEASUREMENT_PARAMETERS: 31 g ai/ha Preemergence; 0 is no effect, 100 is complete control
Classify by measured Plant response rating (0 to 100 scale), Oat, Wild: True if it is equal to or exceeds 40, False if it is smaller.

COMPOUND	TGT	CLASS_LABEL
Cc1cc(C)c(N2CCC(OCC3CC3)C2=O)cc1NS(=O)(=O)C(F)(F)F (centres unmarked)	oat, wild (wild oat, Avena fatua)	True
C#CC(C)OC1CCN(c2cc(NS(=O)(=O)C(F)(F)F)c(C)cc2C)C1=O (centres unmarked)	oat, wild (wild oat, Avena fatua)	True
Cc1cc(C)c(N2CCC(OCC3CCC3)C2=O)cc1NS(=O)(=O)C(F)(F)F (centres unmarked)	oat, wild (wild oat, Avena fatua)	False
Cc1c(NS(=O)(=O)C(F)(F)F)cc(N2CCCC(OC3CCC3)C2=O)c(C)c1F (centres unmarked)	oat, wild (wild oat, Avena fatua)	False
Cc1c(N2CCC(OC3CCC3)C2=O)cc(N(COC(=O)C(C)(C)C)S(=O)(=O)C(F)(F)F)c(C)c1F (centres unmarked)	oat, wild (wild oat, Avena fatua)	False
Cc1cc(C)c(N(C(=O)OC(C)C)S(=O)(=O)C(F)(F)F)cc1N1CCC(OC2CC2)C1=O (centres unmarked)	oat, wild (wild oat, Avena fatua)	False
Cc1c(N2CCC(OC3CCC3)C2=O)cc(N(C(=O)OCC(C)C)S(=O)(=O)C(F)(F)F)c(C)c1C (centres unmarked)	oat, wild (wild oat, Avena fatua)	True
COC(=O)N(c1cc(N2CCC(OC3CC3)C2=O)c(C)cc1Cl)S(=O)(=O)C(F)(F)F (centres unmarked)	oat, wild (wild oat, Avena fatua)	False

Incoming: Threshold query (Plant response rating (0 to 100 scale), Oat, Wild >= 40) on Cc1c(NS(=O)(=O)C(F)(F)F)cc(N2CCCC(OC3CC3)C2=O)c(C)c1F (centres unmarked)
Outgoing: False

Incoming: Hi, just wondering whether Cc1cc(C)c(N2CCC(OCC3CCCO3)C2=O)cc1NS(=O)(=O)C(F)(F)F (centres unmarked) shows Plant response rating (0 to 100 scale), Oat, Wild of 40 or higher.
Outgoing: False

Incoming: Entry Cc1c(NS(=O)(=O)C(F)(F)F)cc(N2CCC(OC3CC3)C2=O)c(C)c1F (centres unmarked) : is its Plant response rating (0 to 100 scale), Oat, Wild no less than 40?
Outgoing: True

Incoming: Please check the record Cc1c(N2CCC(OC3CCC3)C2=O)cc(N(COC(=O)C(C)(C)C)S(=O)(=O)C(F)(F)F)c(C)c1C (centres unmarked) and state if its Plant response rating (0 to 100 scale), Oat, Wild is at or above 40.
Outgoing: False

Incoming: # check: Plant response rating (0 to 100 scale), Oat, Wild of CO/N=C1\CCN(c2cc(NS(=O)(=O)C(F)(F)F)c(C)cc2C)C1=O is greater than or equal to 40
Outgoing: True

Incoming: Given the entry Cc1cc(C)c(N2CC/C(=N\O)C2=O)cc1NS(=O)(=O)C(F)(F)F , answer whether its Plant response rating (0 to 100 scale), Oat, Wild meets or surpasses 40.
Outgoing: True

Incoming: Hi team, for C=CCO/N=C1\CCN(c2cc(NS(=O)(=O)C(F)(F)F)c(C)cc2C)C1=O , is the recorded Plant response rating (0 to 100 scale), Oat, Wild at or above 40?
Outgoing: False

Incoming: Answer whether Plant response rating (0 to 100 scale), Oat, Wild of Cc1cc(C)c(N(C(=O)OCC(C)C)S(=O)(=O)C(F)(F)F)cc1N1CCC(OC2CC2)C1=O (centres unmarked) is greater than or equal to 40.
Outgoing: False

Incoming: Has Cc1cc(C)c(N2CCC(OC3CC3)C2=O)cc1NS(=O)(=O)C(F)(F)F (single isomer, unassigned) [Compound 29] a recorded Plant response rating (0 to 100 scale), Oat, Wild greater than or equal to 40?
Outgoing: True

====

- System: ragweed (common ragweed, Ambrosia artemisiifolia)
- METHOD_SUMMARY: Test A postemergence, ragweed
- Assay type: in vivo
- MEASUREMENT_PARAMETERS: post-emergence, 240 h, 125 g ai/ha, 0 to 100 scale, 10 days, read-out: Plant response rating, Ragweed
# key: entry, value: pest or weed control at 125 g/ha
# number only, unit % dropped from output

Here are 3 compounds together with their reported answers.
COMPOUND	REPORTED_VALUE
Cc1cc(C)c(N(COC(=O)C(C)(C)C)S(=O)(=O)C(F)(F)F)cc1N1CCC(OC2CCCC2)C1=O (centres unmarked)	80
Cc1cc(C)c(N(COC(=O)C(C)(C)C)S(=O)(=O)C(F)(F)F)cc1N1CCC(OC2CCC2)C1=O (centres unmarked)	90
Cc1cc(C)c(N2CCC(OC3CCC3)C2=O)cc1NS(=O)(=O)C(F)(F)F (centres unmarked)	90

The compound C=CCOC1CCN(c2cc(NS(=O)(=O)C(F)(F)F)c(C)cc2C)C1=O (centres unmarked) showed pest or weed control at 125 g/ha equal to 70

// pest or weed control at 125 g/ha value for Cc1cc(C)c(N(COC(=O)C(C)(C)C)S(=O)(=O)C(F)(F)F)cc1N1CCC(OC2CC2)C1=O (centres unmarked) : 90

C#CCOC1CCN(c2cc(NS(=O)(=O)C(F)(F)F)c(C)cc2C)C1=O (centres unmarked) yielded pest or weed control at 125 g/ha of 80

Cc1cc(C)c(N2CCC(OC3CC3)C2=O)cc1NS(=O)(=O)C(F)(F)F (centres unmarked) yielded pest or weed control at 125 g/ha of 90

According to the records, this compound Cc1cc(C)c(N2CCC(OC3CCCC3)C2=O)cc1NS(=O)(=O)C(F)(F)F (centres unmarked) displays pest or weed control at 125 g/ha of 90

====

- System: ragweed (common ragweed, Ambrosia artemisiifolia)
- METHOD_SUMMARY: Test C preemergence, ragweed
- Format: in vivo
- MEASUREMENT_PARAMETERS: 31 g ai/ha Preemergence; 0 is no effect, 100 is complete control
READOUT: Plant response rating (0 to 100 scale), Ragweed
// print number alone

Looking up Cc1c(NS(=O)(=O)C(F)(F)F)cc(N2CCC(OC3CC3)C2=O)c(C)c1F (stereo not shown) , I found its Plant response rating (0 to 100 scale), Ragweed recorded as 90

Entry under test: Cc1cc(C)c(N2CCC(OCC3CC3(F)F)C2=O)cc1NS(=O)(=O)C(F)(F)F (stereo not shown) . Its Plant response rating (0 to 100 scale), Ragweed was 70

Plant response rating (0 to 100 scale), Ragweed in this record for Cc1c(N2CCC(OC3CC3)C2=O)cc(N(COC(=O)C(C)(C)C)S(=O)(=O)C(F)(F)F)c(C)c1C (stereo not shown) : 100

Recorded Plant response rating (0 to 100 scale), Ragweed (compound C=C(C)COC1CCN(c2cc(NS(=O)(=O)C(F)(F)F)c(C)cc2C)C1=O (stereo not shown) ): 50

====

- Test system: foxtail, giant (giant foxtail, Setaria faberi)
- METHOD_SUMMARY: Test C preemergence, giant foxtail
- Assay type: in vivo
- MEASUREMENT_PARAMETERS: 125 g ai/ha Preemergence; 0 is no effect, 100 is complete control
Recorded Plant response rating (0 to 100 scale), Foxtail, Giant for the following compounds
Please reply with the value in numeric form only.

COMPOUND	REPORTED_VALUE
Cc1c(NS(=O)(=O)C(F)(F)F)cc(N2CCC(OC3CC3)C2=O)c(C)c1C (stereo not shown)	100
CO/N=C1\CCN(c2cc(NS(=O)(=O)C(F)(F)F)c(C)cc2C)C1=O	100
Cc1cc(C)c(N2CCC(OC3COC3)C2=O)cc1NS(=O)(=O)C(F)(F)F (stereo not shown)	90

Field: next compound
C=C(C)COC1CCN(c2cc(NS(=O)(=O)C(F)(F)F)c(C)cc2C)C1=O (stereo not shown) tested on foxtail, giant (giant foxtail, Setaria faberi) gave Plant response rating (0 to 100 scale), Foxtail, Giant: 100

====

- Test system: goosegrass (Eleusine indica)
- METHOD_SUMMARY: Test C preemergence, goosegrass
- Format: in vivo
- MEASUREMENT_PARAMETERS: 31 g ai/ha Preemergence; 0 is no effect, 100 is complete control
- Source text: […]
READOUT: Plant response rating (0 to 100 scale), Goosegrass

Recorded Plant response rating (0 to 100 scale), Goosegrass, per entry:
COMPOUND	REPORTED_VALUE
C#CC(C)OC1CCN(c2cc(NS(=O)(=O)C(F)(F)F)c(C)cc2C)C1=O (centres unmarked)	100
CC(=O)N(c1cc(N2CCC(OC3CC3)C2=O)c(C)cc1C)S(=O)(=O)C(F)(F)F (centres unmarked)	100
Cc1cc(C)c(N2CCC(OCC3CCCC3)C2=O)cc1NS(=O)(=O)C(F)(F)F (centres unmarked)	90
C=CCO/N=C1\CCN(c2cc(NS(=O)(=O)C(F)(F)F)c(C)cc2C)C1=O	100

Entry under test: Cc1cc(C)c(N(COC(=O)C(C)(C)C)S(=O)(=O)C(F)(F)F)cc1N1CCC(OCC2CCC2)C1=O (centres unmarked) . Its Plant response rating (0 to 100 scale), Goosegrass was 10

The reported Plant response rating (0 to 100 scale), Goosegrass of the compound CC#CCOC1CCN(c2cc(NS(=O)(=O)C(F)(F)F)c(C)cc2C)C1=O (centres unmarked) was 90

Data point: Cc1cc(C)c(N2CCC(O)C2=O)cc1NS(=O)(=O)C(F)(F)F (centres unmarked) ; Plant response rating (0 to 100 scale), Goosegrass = 90

Documented Plant response rating (0 to 100 scale), Goosegrass of Cc1cc(C)c(N2CCC(OCC3CC3)C2=O)cc1NS(=O)(=O)C(F)(F)F (centres unmarked) : 100
